Data origin, for the record: patent US11866450B2

target: CFTR-mediated chloride transport (Homo sapiens, UniProt P13569); assay type: cell-based; conditions: enteroid cells incubated with test compound 18-24 hours; acute 10 μM forskolin and 300 nM Compound III; % of chloride transport with 3 μM Compound A, 3 μM Compound II and 300 nM acute Compound III triple combination control
Sequence (P13569 whole entry, looked up): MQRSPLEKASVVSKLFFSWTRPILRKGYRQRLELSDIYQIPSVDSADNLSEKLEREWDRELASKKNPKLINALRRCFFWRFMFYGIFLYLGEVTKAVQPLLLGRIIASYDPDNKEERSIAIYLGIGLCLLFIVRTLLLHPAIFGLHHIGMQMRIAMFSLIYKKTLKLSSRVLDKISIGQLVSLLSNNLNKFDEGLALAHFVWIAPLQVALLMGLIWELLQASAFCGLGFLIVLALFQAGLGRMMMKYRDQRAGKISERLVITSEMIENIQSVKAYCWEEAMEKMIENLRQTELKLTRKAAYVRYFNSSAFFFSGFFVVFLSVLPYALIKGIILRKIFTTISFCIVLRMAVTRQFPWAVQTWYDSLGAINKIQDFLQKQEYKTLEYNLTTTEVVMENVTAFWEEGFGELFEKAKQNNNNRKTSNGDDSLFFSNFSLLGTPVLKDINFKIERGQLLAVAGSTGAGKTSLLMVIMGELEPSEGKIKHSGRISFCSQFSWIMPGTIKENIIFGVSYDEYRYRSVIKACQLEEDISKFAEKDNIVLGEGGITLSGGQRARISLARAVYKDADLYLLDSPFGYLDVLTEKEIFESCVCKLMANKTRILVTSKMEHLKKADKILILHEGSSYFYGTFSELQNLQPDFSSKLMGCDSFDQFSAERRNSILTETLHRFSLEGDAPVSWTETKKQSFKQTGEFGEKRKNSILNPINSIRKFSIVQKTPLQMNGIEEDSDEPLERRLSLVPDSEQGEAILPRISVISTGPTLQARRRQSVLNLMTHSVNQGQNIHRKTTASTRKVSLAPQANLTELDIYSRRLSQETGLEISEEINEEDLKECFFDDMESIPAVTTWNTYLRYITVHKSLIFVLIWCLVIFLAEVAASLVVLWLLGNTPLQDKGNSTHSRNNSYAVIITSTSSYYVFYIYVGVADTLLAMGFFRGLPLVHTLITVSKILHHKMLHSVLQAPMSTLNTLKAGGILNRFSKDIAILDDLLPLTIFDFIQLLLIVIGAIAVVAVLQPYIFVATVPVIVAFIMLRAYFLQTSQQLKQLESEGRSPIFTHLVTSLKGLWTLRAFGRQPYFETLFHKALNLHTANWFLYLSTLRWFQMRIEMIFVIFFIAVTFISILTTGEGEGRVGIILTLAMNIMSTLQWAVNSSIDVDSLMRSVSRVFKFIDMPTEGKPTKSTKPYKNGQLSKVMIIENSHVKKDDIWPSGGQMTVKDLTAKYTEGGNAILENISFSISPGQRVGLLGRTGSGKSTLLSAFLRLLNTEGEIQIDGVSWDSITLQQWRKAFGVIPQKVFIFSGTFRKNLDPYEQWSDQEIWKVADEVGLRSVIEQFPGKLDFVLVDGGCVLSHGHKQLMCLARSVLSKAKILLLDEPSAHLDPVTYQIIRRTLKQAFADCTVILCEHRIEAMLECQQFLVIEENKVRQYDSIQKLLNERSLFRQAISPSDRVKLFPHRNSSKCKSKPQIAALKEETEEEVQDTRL

{"molecule": "CC1(C)C[C@H]2CCCOc3cccc(n3)S(=O)(=O)NC(=O)c3ccc(-n4ccc(OCCC5(C(F)(F)F)CC5)n4)nc3N1C2 (single isomer, unassigned) [Compound 48]", "Max. Activity": "+ (+ is <30%)"}
{"molecule": "CC1(C)C[C@H]2CCCCc3cccc(c3)S(=O)(=O)NC(=O)c3ccc(-n4ccc(OCCC5(C(F)(F)F)CC5)n4)nc3N1C2 (single isomer, unassigned) [Compound 56]", "Max. Activity": "+ (+ is <30%)"}

---

Target: CFTR-mediated chloride transport (Homo sapiens, UniProt P13569)
Format: cell-based
Conditions: enteroid cells incubated with test compound 18-24 hours; acute 10 μM forskolin and 300 nM Compound III; % of chloride transport with 3 μM Compound A, 3 μM Compound II and 300 nM acute Compound III triple combination control
Method: Base medium (ADF+++) consisted of Advanced DMEM/Ham's F12, 2 mM Glutamax, 10 mM HEPES, […] penicillin/streptomycin. […] Enteroid cells were incubated with test compound in IEMM for 18-24 hours at 37° C., 95% humidity and 5% CO2. […] Chloride transport was initiated by addition of Chloride Free Dye Stimulation Solution and the fluorescence signal was read for 15 min. […]

{"compound": "CC1(C)CC2CCCNc3cc(ccn3)S(=O)(=O)NC(=O)c3ccc(-n4ccc(OCCC5(C(F)(F)F)CC5)n4)nc3N1C2 (stereo not drawn)", "Max. Activity": "+++ (+++ is >60%)"}
{"compound": "CC1(C)CC2CN1c1nc(-n3ccc(OCCC4(C(F)(F)F)CC4)n3)ccc1C(=O)NS(=O)(=O)c1cccc(n1)NCCO2 (stereo not drawn)", "Max. Activity": "+++ (+++ is >60%)"}

---

biological target: CFTR-mediated chloride transport (Homo sapiens, UniProt P13569); type: cell-based; conditions: enteroid cells incubated with test compound 18-24 hours; acute 10 μM forskolin and 300 nM Compound III; % of chloride transport with 3 μM Compound A, 3 μM Compound II and 300 nM acute Compound III triple combination control
parameterMeasured: Max. Activity

Solved entries:
{"compound": "Cc1cn2nc1S(=O)(=O)NC(=O)c1ccc(-n3ccc(OCCC4(C(F)(F)F)CC4)n3)nc1N1CC(CCC2)CC1(C)C (stereo not drawn)", "Max. Activity": "++ (++ is 30-60%)"}
{"compound": "CC1CCC2CN(c3nc(N4CCN(CCC(C)(C)C)C4=O)ccc3C(=O)NS(=O)(=O)c3cccc(n3)N1)C(C)(C)C2 (stereo not drawn) [Compound 209]", "Max. Activity": "++ (++ is 30-60%)"}
{"compound": "CC1(C)C[C@H]2CCCNc3cccc(n3)S(=N)(=O)NC(=O)c3ccc(-n4ccc(OCCC5(C(F)(F)F)CC5)n4)nc3N1C2 (single isomer, unassigned) [Compound 271]", "Max. Activity": "+++ (+++ is >60%)"}
{"compound": "CC(C)(C)COc1ccn(-c2ccc3c(n2)N2C[C@H](CCNc4cccc(n4)S(=O)(=O)NC3=O)CC2(C)C)n1 (single isomer, unassigned) [Compound 3]", "Max. Activity": "+++ (+++ is >60%)"}
{"compound": "CC1(C)C[C@H]2CCCCNc3ccc(cn3)S(=O)(=O)NC(=O)c3ccc(-n4ccc(OCC5C6(CC6)C56CC6)n4)nc3N1C2 (single isomer, unassigned) [Compound 120]", "Max. Activity": "++ (++ is 30-60%)"}

Data request: Query: Max. Activity; subject: Cc1ccc2nc1S(=O)(=O)NC(=O)c1ccc(-n3ccc(OCCC4(C(F)(F)F)CC4)n3)nc1N1C[C@H](CCCN2)CC1(C)C (single isomer, unassigned) [Compound 149]
Data returned: +++ (+++ is >60%)

Data request: Consider the compound CC1(C)CC2CCCCn3ccc(n3)S(=O)(=O)NC(=O)c3ccc(-n4ccc(OCCCC5(C(F)(F)F)CC5)n4)nc3N1C2 (stereo not drawn) and give its measured Max. Activity.
Data returned: ++ (++ is 30-60%)

Data request: Max. Activity lookup needed for CC1(C)CC2CCCn3ccc(n3)S(=O)(=O)NC(=O)c3ccc(-n4ccc(OCCCC5(C(F)(F)F)CC5)n4)nc3N1C2 (racemic) , thanks.
Data returned: +++ (+++ is >60%)

Data request: Find the recorded Max. Activity belonging to CC1(C)CC[C@H]2CCNc3cccc(n3)S(=O)(=O)NC(=O)c3ccc(-n4ccc(OCCC5(C(F)(F)F)CC5)n4)nc3N21 (single isomer, unassigned) [Compound 117] and report it.
Data returned: ++ (++ is 30-60%)

Data request: Any idea what Max. Activity was measured for `CC1(C)C[C@@H]2CCCNc3cccc(n3)S(=O)(=O)NC(=O)c3ccc(N4CCN(CC5CCC(F)(F)CC5)C4=O)nc3N1C2` ?
Data returned: ++ (++ is 30-60%)

Data request: Which Max. Activity reading was recorded for the compound `CC1(C)C[C@@H]2CCCNc3cccc(n3)S(=O)(=O)NC(=O)c3ccc(-n4ccc(OCCC(C5CC5)C5CC5)n4)nc3N1C2` ?
Data returned: +++ (+++ is >60%)
